Assignment: determine reported Activity for the given compounds.
target: Tyrosine-protein kinase ABL1 (Homo sapiens) (UniProt P00519); test: Peptide phosphorylation by c-Abl protein tyrosine kinase at 25 degree for 30 min in a cell-free system
Sequence (P00519 whole entry): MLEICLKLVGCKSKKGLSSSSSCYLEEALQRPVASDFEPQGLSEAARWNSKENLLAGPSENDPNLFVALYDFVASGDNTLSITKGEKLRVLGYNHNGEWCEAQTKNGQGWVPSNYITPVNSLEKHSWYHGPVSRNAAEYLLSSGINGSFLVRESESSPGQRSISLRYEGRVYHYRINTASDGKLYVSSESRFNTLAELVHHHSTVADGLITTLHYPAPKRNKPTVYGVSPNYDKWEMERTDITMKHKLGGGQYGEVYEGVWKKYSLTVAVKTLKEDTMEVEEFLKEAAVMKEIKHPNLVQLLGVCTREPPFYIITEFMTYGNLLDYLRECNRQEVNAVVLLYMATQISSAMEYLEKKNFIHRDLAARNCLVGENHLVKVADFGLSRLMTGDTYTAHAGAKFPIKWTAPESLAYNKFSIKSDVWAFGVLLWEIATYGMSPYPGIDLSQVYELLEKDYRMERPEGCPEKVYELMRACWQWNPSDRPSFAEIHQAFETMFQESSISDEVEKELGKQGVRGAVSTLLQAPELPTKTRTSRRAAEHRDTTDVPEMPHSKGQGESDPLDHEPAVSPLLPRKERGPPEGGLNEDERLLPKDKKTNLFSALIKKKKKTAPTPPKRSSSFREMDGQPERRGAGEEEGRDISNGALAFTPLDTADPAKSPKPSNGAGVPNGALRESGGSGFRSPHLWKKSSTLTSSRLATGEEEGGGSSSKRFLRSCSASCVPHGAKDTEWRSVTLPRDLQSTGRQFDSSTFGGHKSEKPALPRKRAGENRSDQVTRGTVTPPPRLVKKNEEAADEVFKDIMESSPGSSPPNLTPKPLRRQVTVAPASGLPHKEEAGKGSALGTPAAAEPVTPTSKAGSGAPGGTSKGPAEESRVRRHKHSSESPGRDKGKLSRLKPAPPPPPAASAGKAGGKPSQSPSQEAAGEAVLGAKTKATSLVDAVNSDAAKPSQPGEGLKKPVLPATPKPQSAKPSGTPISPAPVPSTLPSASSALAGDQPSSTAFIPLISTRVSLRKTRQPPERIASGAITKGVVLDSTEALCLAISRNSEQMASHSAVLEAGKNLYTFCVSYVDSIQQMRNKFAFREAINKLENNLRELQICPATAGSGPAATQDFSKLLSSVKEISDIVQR
Peptide text beside a SMILES is read from it.
Number only, in pmol; omit the unit.

Exam item: Which value of Activity has been reported for CC[C@H](C)[C@H](NC(=O)[C@H](CCC(=O)O)NC(=O)[C@@H](N)CCC(=O)O)C(=O)N[C@@H](Cc1ccc(O)cc1)C(=O)N[C@@H](C)C(=O)N[C@@H](CCC(=O)O)C(=O)N[C@@H](Cc1c[nH]c2ccccc12)C(=O)N[C@@H](Cc1ccccc1)C(=O)O (H-EEIYAEWF-OH) in the records?
Marked response: 5.69

Exam item: What value of Activity has been reported for the following compound? CC[C@H](C)[C@H](NC(=O)[C@H](CCCN=C(N)N)NC(=O)[C@@H]1CCCN1)C(=O)N[C@@H](Cc1ccc(O)cc1)C(=O)N[C@@H](CC(=O)O)C(=O)N[C@H](C(=O)N1CCC[C@H]1C(=O)N[C@@H](Cc1ccc(O)cc1)C(=O)O)[C@@H](C)CC (H-PRIYDIPY-OH)
Marked response: 1.59

Exam item: Reported Activity, compound CC[C@H](C)[C@H](NC(=O)[C@H](CCC(=O)O)NC(=O)[C@@H](N)CCC(=O)O)C(=O)N[C@@H](Cc1ccc(O)cc1)C(=O)N[C@@H](Cc1ccc(O)cc1)C(=O)N[C@@H](Cc1ccc(O)cc1)C(=O)N[C@@H](CCC(=O)O)C(=O)N[C@@H](CC(C)C)C(=O)O (H-EEIYYYEL-OH) : ____
Marked response: 1.27

Exam item: State the recorded Activity for this entry: CC[C@H](C)[C@H](NC(=O)[C@H](CCC(=O)O)NC(=O)[C@@H](N)CCC(=O)O)C(=O)N[C@@H](Cc1ccc(O)cc1)C(=O)N[C@@H](CC(=O)O)C(=O)N[C@@H](Cc1ccc(O)cc1)C(=O)N[C@@H](C)C(=O)N[C@@H](Cc1ccc(O)cc1)C(=O)O (H-EEIYDYAY-OH)
Marked response: 6.73
